Reference for the values: the nanobody polyreactivity screen of Harvey et al. (2022)

- procedure-summary: yeast display, Sf9 membrane polyspecificity reagent, FACS + sequencing; frameworks hold sequencing errors
property-name: polyreactivity (PSR sort gate)

For orientation, consider the following solved cases.
QVQLVESGGGIVQAGGSLRLSCAASGRTFRGNAMGWSRQAPVKERELVATIRRPGGSTYYADSVKGRFTISRDNAKNTVYLQMNSLKPEDTAVYYCNALNYYLYDKTFDYWGQGTKVTVSS    high polyreactivity
QVQLVESGGGLVQAGGSLRLSCAASGRTFRAYALGWYRQAPGKERELVARISWSGGNTYNADSVKGRFTISRDHAKNTVYLQMNSLKPEDTAVYYCAKTYYPYPAQIYTGYSWGQGTQVTVSS    low polyreactivity
QFQLVESGGGLVQAGGSLRLSCAASGRIRDNARGWYRQAPGKERELVAAISSSGGSTYYADSVKGRFTISRDNAKNTVYLQMNSLKPEDTAVYYCNAVRTGKIFGSWGQGTQVTVSS    high polyreactivity
QVQLVESGGGLVQAGGSLRLSCAASGRIFRYYAMGWYRQAAGKERELVAAISYSGGRTYYADSVKGRFTISRDNAKNTVYVQMNSLKPEDTAVYYCASVWHSQSSYVPFDSWGQGTQVTVSS    high polyreactivity
QVQLVESGGGLVQAGGSLRLSCAASGFIFYSNAMGWYRQEPGKERELVAAITSGGGSTYYADSVKGRFTISRDNAKNTVYLQMNSLKPEDTAVYYCAVSIGRYPYRYGYWGQGTQVTVSS    high polyreactivity
QVQLVESGGGLVQAGGSLRLSCAASGSIFPHYAMGWYRQAPGKERELVAAISRGGSTNYADSVKGRFTISRDNAKNTVYLQMNSLKPEDTAVYYCAAQGNRYANDYWGQGTQVTVSS    high polyreactivity
QVLLVESGGGLVQAGGSLRLSGAASGRTFRRNAIGWYRQAPGKERELVAAISASGGSTYYADSVKGRFTISRDNAMNTVYLEMNSLKPEDTADYYCAAVSQTTYWGQGTQVTVSS    high polyreactivity
QVQLVESGGGLVQAGGSLRISCADSGSIFHPNAMGWYRQAPGKERELVAAISIGGDTYYADSVKGRFTISRDNAKNTVYLQMNSLKPEDTAVYYCAVTYVGHVYEYYYWGQGTQVTVSS    low polyreactivity
QVQLVESGGGLVQAGGSLRLSCAASGITLYRYAMGCYRQAPGKERELVADISSGGGTTYYADSVKGRFTISRDNAKNTVYLQMNSLKPEDTAVYYCAADYGFRYPLYDYWGQGTQVTVSS    low polyreactivity
QVQLVESGGGLVEAGGSLRLSCAASGRTFDYNAMGWYRQAPGKERELVAAISRGGSTYYADSVKGRFTISRDNPNNSVYLQMNSLKPEDTAVYYCAALYVRVGYDYWGQGTQVTVSS    high polyreactivity

Consider now this further sequence.
Lookup: # lookup: polyreactivity (PSR sort gate) of QVQLVESGGGLVQAGGSLRLSCAASGSISSFYAMGWYRQAPGKERELVAGITSGGSTNYADSVNGRFTISRDNAKNTVYLKLNSLNPEDTAVFYCAAERTPSYRAYDYWGKGTQVTVSS
Found: low polyreactivity
